So I've got a bunch of compounds here, and I need their viability, T/C values.
- Tested on: 855422-203-R-J1-PDC complex spheroid growth
- testDetails: Anticancer human tumor 855422-203-R-J1-PDC patient-derived bladder carcinoma cell line growth inhibition [AhR]
- measurementParameters: second compound 10 µM; first compound 3 µM; stronger effect = lower value
// units = %; emit number, no label

The compound listed as O=C(C=Cn1cnc(-c2cc(C(F)(F)F)cc(C(F)(F)F)c2)n1)NNc1cnccn1 + Cc1ccccc1N=Nc1ccc(NC(=O)c2ccnn2C)c(C)c1 shows viability, T/C equal to 45.4

The compound listed as O=C(C=Cn1cnc(-c2cc(C(F)(F)F)cc(C(F)(F)F)c2)n1)NNc1cnccn1 + CC(CO)NC(=O)c1cc(-c2ccc(Cl)cc2)nn(-c2cnn(C)c2)c1=O shows viability, T/C equal to 31.1

The compound listed as CCN(c1cc(-c2ccc(CN3CCOCC3)cc2)cc(C(=O)NCc2c(C)cc(C)[nH]c2=O)c1C)C1CCOCC1 + CC(CO)NC(=O)c1cc(-c2ccc(Cl)cc2)nn(-c2cnn(C)c2)c1=O shows viability, T/C equal to 80.7

* * *

So I've got a bunch of molecules here, and I need their viability, T/C values.
- System: 855422-203-R-J1-PDC complex spheroid growth
- testDetails: Anticancer human tumor 855422-203-R-J1-PDC cell line growth inhibition [AhR];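 further: spheroids exposed to agents for seven days before readout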;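 on viability, T/C: percent of DMSO vehicle control luminescence viability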
- measurementParameters: second compound 10 µM; first compound 1 µM; stronger effect = lower value
- Description: Multicellular complex tumor spheroid response to aryl hydrocarbon receptor antagonists in combination with a variety of drugs and investigational agents in selected tumor cell lines […] Compounds. […] If the clinical Cmax for an agent had not been determined, the highest concentration tested was 10 microM (Table 1). […]
// units = %; emit number, no label

The molecule listed as CC1(C)CCC(CN2CCN(c3ccc(C(=O)NS(=O)(=O)c4ccc(NCC5CCOCC5)c([N+](=O)[O-])c4)c(Oc4cnc5[nH]ccc5c4)c3)CC2)=C(c2ccc(Cl)cc2)C1 + Cc1ccccc1N=Nc1ccc(NC(=O)c2ccnn2C)c(C)c1 shows viability, T/C equal to 85.6

The molecule listed as NS(=O)(=O)OCC1CC(n2ccc3c(NC4CCc5ccccc54)ncnc32)CC1O (stereo not drawn) + Cc1ccccc1N=Nc1ccc(NC(=O)c2ccnn2C)c(C)c1 shows viability, T/C equal to 35.2

The molecule listed as NS(=O)(=O)OCC1CC(n2ccc3c(NC4CCc5ccccc54)ncnc32)CC1O (stereo not drawn) + CC(CO)NC(=O)c1cc(-c2ccc(Cl)cc2)nn(-c2cnn(C)c2)c1=O shows viability, T/C equal to 38.6

* * *

So I've got a bunch of compounds here, and I need their viability, T/C values.
- Test system: 855422-203-R-J1-PDC complex spheroid growth
- testDetails: Anticancer human tumor 855422-203-R-J1-PDC cell line growth inhibition [AhR];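 further: spheroids exposed to agents for seven days before readout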;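 on viability, T/C: percent of DMSO vehicle control luminescence viability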
- measurementParameters: second compound 10 µM; first compound 0.0316 µM; stronger effect = lower value
// units = %; emit number, no label

The compound listed as Nc1ccn(C2OC(CO)C(O)C2(F)F)c(=O)n1 (centres undefined) + Cc1ccccc1N=Nc1ccc(NC(=O)c2ccnn2C)c(C)c1 shows viability, T/C equal to 64

The compound listed as COc1cc(C2c3cc4c(cc3C(OC3OC5COC(C)OC5C(O)C3O)C3COC(=O)C23)OCO4)cc(OC)c1O (centres undefined) + CC(CO)NC(=O)c1cc(-c2ccc(Cl)cc2)nn(-c2cnn(C)c2)c1=O shows viability, T/C equal to 96.2

The compound listed as CC(C)c1c(-c2ccccc2)nc2c(C#N)c[nH]n2c1=O + CC(CO)NC(=O)c1cc(-c2ccc(Cl)cc2)nn(-c2cnn(C)c2)c1=O shows viability, T/C equal to 86.9

The compound listed as Cn1ncnc1C1c2n[nH]c(=O)c3cc(F)cc(c23)NC1c1ccc(F)cc1 (centres undefined) + Cc1cncc(-c2nc(NCCc3c[nH]c4ccccc34)c3ncn(C(C)C)c3n2)c1 shows viability, T/C equal to 23.6

* * *

- Tested on: 855422-203-R-J1-PDC complex spheroid growth
- testDetails: Anticancer human tumor 855422-203-R-J1-PDC cell line growth inhibition [AhR];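 further: spheroids exposed to agents for seven days before readout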
- measurementParameters: curve of first compound; second compound 10 µM
pIC50: −log10 of the molar value.
So I've got a bunch of compounds here, and I need their pIC50 values.

The compound listed as CC(C)CC(NC(=O)C(Cc1ccccc1)NC(=O)c1cnccn1)B(O)O (configuration not stated) + Cc1cncc(-c2nc(NCCc3c[nH]c4ccccc34)c3ncn(C(C)C)c3n2)c1 shows pIC50 equal to > 9.02

The compound listed as CC[C@@]1(O)C(=O)OCc2c1cc1n(c2=O)Cc2cc3c(CN(C)C)c(O)ccc3nc2-1 + Cc1cncc(-c2nc(NCCc3c[nH]c4ccccc34)c3ncn(C(C)C)c3n2)c1 shows pIC50 equal to > 9.50

The compound listed as O=C(c1cc(Cc2n[nH]c(=O)c3ccccc23)ccc1F)N1CCN(C(=O)C2CC2)CC1 + CC(CO)NC(=O)c1cc(-c2ccc(Cl)cc2)nn(-c2cnn(C)c2)c1=O shows pIC50 equal to < 5.00

The compound listed as COc1ccc([C@@H](O)c2cc(-c3ncnc4cc(N5CCOCC5)ccc34)c(F)cc2Cl)nn1 + CC(CO)NC(=O)c1cc(-c2ccc(Cl)cc2)nn(-c2cnn(C)c2)c1=O shows pIC50 equal to < 5.00

The compound listed as COc1cc(Nc2ncc3c(n2)-c2ccc(Cl)cc2C(c2c(F)cccc2OC)=NC3)ccc1C(=O)O + Cc1ccccc1N=Nc1ccc(NC(=O)c2ccnn2C)c(C)c1 shows pIC50 equal to < 5.00

The compound listed as CCN(c1cc(-c2ccc(CN3CCOCC3)cc2)cc(C(=O)NCc2c(C)cc(C)[nH]c2=O)c1C)C1CCOCC1 + Cc1ccccc1N=Nc1ccc(NC(=O)c2ccnn2C)c(C)c1 shows pIC50 equal to < 5.52

The compound listed as Nc1ncn(C2CC(O)C(CO)O2)c(=O)n1 (configuration not stated) + CC(CO)NC(=O)c1cc(-c2ccc(Cl)cc2)nn(-c2cnn(C)c2)c1=O shows pIC50 equal to < 6.00

* * *

- Tested on: 855422-203-R-J1-PDC complex spheroid growth
- testDetails: Anticancer human tumor 855422-203-R-J1-PDC cell line growth inhibition [AhR]; active = viability on the fitted dose curve at most 10% of control; inactive = the rest;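 further: spheroids exposed to agents for seven days before readout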
- measurementParameters: second compound 10 µM; first compound 0.0316 µM
Outcome (select one): active, inactive

Any idea what this test logged for CC1COCCN1c1cc(C2(S(C)(=N)=O)CC2)nc(-c2ccnc3[nH]ccc23)n1 (centres undefined) + CC(CO)NC(=O)c1cc(-c2ccc(Cl)cc2)nn(-c2cnn(C)c2)c1=O ? inactive

Any idea what this test logged for COc1cc(C2c3cc4c(cc3C(OC3OC5COC(C)OC5C(O)C3O)C3COC(=O)C23)OCO4)cc(OC)c1O (centres undefined) + Cc1cncc(-c2nc(NCCc3c[nH]c4ccccc34)c3ncn(C(C)C)c3n2)c1 ? inactive

Any idea what this test logged for COc1ccc([C@@H](O)c2cc(-c3ncnc4cc(N5CCOCC5)ccc34)c(F)cc2Cl)nn1 + Cc1cncc(-c2nc(NCCc3c[nH]c4ccccc34)c3ncn(C(C)C)c3n2)c1 ? active

Any idea what this test logged for COc1cc(Nc2ncc3c(n2)-c2ccc(Cl)cc2C(c2c(F)cccc2OC)=NC3)ccc1C(=O)O + Cc1ccccc1N=Nc1ccc(NC(=O)c2ccnn2C)c(C)c1 ? inactive

* * *

- Tested on: 855422-203-R-J1-PDC complex spheroid growth
- testDetails: Anticancer human tumor 855422-203-R-J1-PDC cell line growth inhibition [AhR];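 further: spheroids exposed to agents for seven days before readout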
- measurementParameters: curve of first compound; second compound 10 µM
assayMetric: IC50

The compound listed as Nc1ncn(C2CC(O)C(CO)O2)c(=O)n1 (stereo not drawn) + Cc1cncc(-c2nc(NCCc3c[nH]c4ccccc34)c3ncn(C(C)C)c3n2)c1 shows IC50 equal to < 3.16 nM

The compound listed as CC1(C)CCC(CN2CCN(c3ccc(C(=O)NS(=O)(=O)c4ccc(NCC5CCOCC5)c([N+](=O)[O-])c4)c(Oc4cnc5[nH]ccc5c4)c3)CC2)=C(c2ccc(Cl)cc2)C1 + Cc1cncc(-c2nc(NCCc3c[nH]c4ccccc34)c3ncn(C(C)C)c3n2)c1 shows IC50 equal to < 31.6 nM

The compound listed as Nc1ncn(C2CC(O)C(CO)S2)c(=O)n1 (stereo not drawn) + Cc1cncc(-c2nc(NCCc3c[nH]c4ccccc34)c3ncn(C(C)C)c3n2)c1 shows IC50 equal to < 0.949 nM

* * *

- Tested on: 855422-203-R-J1-PDC complex spheroid growth
- testDetails: Anticancer human tumor 855422-203-R-J1-PDC cell line growth inhibition [AhR];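 further: spheroids exposed to agents for seven days before readout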;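 on viability, T/C: percent of DMSO vehicle control luminescence viability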
- measurementParameters: second compound 3.16 µM; first compound 0.0316 µM; stronger effect = lower value
assayMetric: viability, T/C (%)
// units = %; emit number, no label

The compound listed as Cn1ncnc1C1c2n[nH]c(=O)c3cc(F)cc(c23)NC1c1ccc(F)cc1 (stereo not drawn) + Cc1ccccc1N=Nc1ccc(NC(=O)c2ccnn2C)c(C)c1 shows viability, T/C equal to 87.4

The compound listed as CC1COCCN1c1cc(C2(S(C)(=N)=O)CC2)nc(-c2ccnc3[nH]ccc23)n1 (stereo not drawn) + Cc1ccccc1N=Nc1ccc(NC(=O)c2ccnn2C)c(C)c1 shows viability, T/C equal to 91

The compound listed as CC1COCCN1c1cc(-c2ccnn2C)c2ccnc(-c3ccn[nH]3)c2n1 (stereo not drawn) + CC(CO)NC(=O)c1cc(-c2ccc(Cl)cc2)nn(-c2cnn(C)c2)c1=O shows viability, T/C equal to 90
